Can you tell me PBM binding z-score for the items I'm about to list?
System: RXRa homodimer (NR concentration 180 nM)
Test: PBM binding z-score (relative to random genomic background probes); higher = stronger binding; sequences stand for … in GC…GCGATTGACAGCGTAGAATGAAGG
One number for each entry.

querySequence | observed
TCTTGAAGATCAACAGGAGGTTAAGAAAGATCGA | 1.25
ATAAGTAGGTTACATCCGGGTCATTCAGGCTATG | 3.12
TCATATAGGTAAAACGTGAAAGTCGGTGTGGTAA | 0.564
TCTCGGAGGACCCGAAGGTCAGAGCTTTCCAGAG | 1.82
CCTGCTAGGTCATGGTAAGCTAATCTACAGTATG | 2.62

Hello, I would appreciate it if you could give PBM binding z-score for each entry below.
1. GGTATTAGTTGAAAGGGCAACCGAATGATTCTCG
2. TCTGCTAGGTCAGTTGTTCAGCTAACGAGCTGCC
3. CCTGCTAGGGCATGGTCAGCTAATCTACAGTATG
4. TCTTGTAGATCAATAGAGGTGAAGAAAGTGCGCT
5. CAAACTAGGTCAAGAGGTCATAGTCCGCTTCCCG
6. TCTTGTAGATCAGCGGGTTAAGAAAGCTGGCCAA
7. CCTAGCAGGGCAATCTGGGTCACTCAAGGCTTGA

A)
[1.5, 0.641, -0.195, 0.577, 7.48, 0.349, 0.981]

Hello, I would appreciate it if you could give PBM binding z-score for each entry below.
1. AGAATGAGGTTACCAAAGACCAGGGAAACGCTTG
2. TGAAGGAGGTTAAAGATCAGGGAACGTGGCGTCG
3. TCTTGTAGATCAAAGGTTAAGGAAGCCGAAGCCT
4. TCTAATTGGTCACGGAGGTCACACACGACGGGTA
5. CCTTACGGGTCACTGACACGTTATAGCATTTGGA

A)
[2.79, 3.25, 3.15, 5.28, 4.94]

Hello, I would appreciate it if you could give PBM binding z-score for each entry below.
1. CAAACTAGCTCAAGAGGTCAAAGTCCGCTTCCCG
2. CCTACTGGGCCAAAAAGGTCATTGGTGCCGATAA
3. TCTTGTAGATCAGCAGGTTAAGTAAGCTGGCCAA
4. CAAACTAGGTCAAGCGGTCAAAGTCCGCTTCCCG
5. CCGACTGGGGCATAAGGTTACCGTAAGCCAGCCC
6. CCTACCGGGCCAAAGGTCATTGATTCCAATGCTC
7. TGAAAGAGGTTAAAGATCAGGGAACGTGGCGTCG

A)
5.51
4.92
0.384
4.04
1.34
6.64
4.19

Hello, I would appreciate it if you could give PBM binding z-score for each entry below.
1. CTACCAAGATGAACAAGGTCGTTGATTACTATTC
2. CCGACTGGGGCAGAAACGTTACCATACCATCCGG

A)
0.837
-0.341

* * *

Tested on: PPARg:RXRa 270nM:90nM, anti-RXR (NR concentration 270 nM, RXRa partner concentration 90 nM)
Assay: PBM binding z-score (relative to random genomic background probes); higher = stronger binding; sequences stand for … in GC…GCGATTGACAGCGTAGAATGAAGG
readoutType: PBM binding z-score
Answers are plain numbers.

Below, 5 sequences whose answers are already recorded.
querySequence | observed
ATCGAAAGGTCGACGAGGCGAGTATACACCGTTT | 2.74
AGTCTAAGTTCATCTAGGTAACGTAAGATATGCT | 2.24
CCGAGTGGGGCAAGGTTACCATAACGCACAGCCA | 2.77
GGAACGAGGACATTCGAGTTGATAGCATGGCGAT | -0.0182
CAAACTAGGTCACACAGGTCAAAGTCCGTGCGTA | 7.72

// switching to the query sequence
Q) Which value of PBM binding z-score has been reported for ACTAGTAGTTGAGACGAGGGCAACCGATAGGTTG in the records?
A) -0.227
